Target: human C5 protein (human, UniProt P01031 19-673; P01031 678-1676)
Test: cell-based or functional assay
Positions of bridges follow the written chain, without caps; N, C: chain ends. Non-standard residues stand in square brackets, D forms with d. Primed or numbered codes have the meaning given here. mXylyl(3) = bridging moiety between the two residues given in brackets; mXylyl″ = bridging moiety between the two marked residues; mXylyl = bridging moiety between residues (mXylyl(i,j)); Ala(1H-tetrazol-5-yl) = N[C@@H](Cc1nnn[nH]1)C(=O)O; Trp(7-aza) = N[C@@H](Cc1c[nH]c2ncccc12)C(=O)O; mXylyl(4) = bridging moiety between residues; dPhg = N[C@@H](C(=O)O)c1ccccc1; Chg = N[C@H](C(=O)O)C1CCCCC1; Phg = N[C@H](C(=O)O)c1ccccc1; Tle = CC(C)(C)[C@H](N)C(=O)O; NMeS = CN[C@@H](CO)C(=O)O; Nva = CCC[C@H](N)C(=O)O
Mark t for reported Avg. IC50, human hemolysis assay (complete human sera) of 300 nM or greater; mark f for anything smaller.

# binder, categoryLabel
rows = [
    ("Ac-[Nva]C[Phg]T[Trp(7-aza)]EY[NMeS]HC-NH2 (linker 2-10 via mXylyl) [R3013]", "t"),
    ("Ac-CVEAFCD[Tle]Y[Trp(7-aza)]EYP[dPhg][Nva]-NH2 (linker 1-6 via mXylyl″) [R3154]", "t"),
    ("Ac-CVERFC[Ala(1H-tetrazol-5-yl)][Tle]Y[Trp(7-aza)]EYP[Chg][Nva]-NH2 (linker 1-6 via mXylyl(3)) [R3168]", "f"),
    ("Ac-[Nva]CYNN[Tle]ECEYP[Phg][Tle]-NH2 (linker 2-8 via mXylyl(4)) [R3129]", "t"),
    ("Ac-[Nva]C[Phg]T[Trp(7-aza)]AY[NMeS]HC[Nva]-NH2 (linker 2-10 via mXylyl) [R3035]", "t"),
    ("Ac-[Nva][Nva]YEN[Tle]Y[Trp(7-aza)]EYP[Chg][Nva]K-NH2 (SMILES CCC[C@H](NC(C)=O)C(=O)N[C@@H](CCC)C(=O)N[C@@H](Cc1ccc(O)cc1)C(=O)N[C@@H](CCC(=O)O)C(=O)N[C@@H](CC(N)=O)C(=O)N[C@H](C(=O)N[C@@H](Cc1ccc(O)cc1)C(=O)N[C@@H](Cc1c[nH]c2ncccc12)C(=O)N[C@@H](CCC(=O)O)C(=O)N[C@@H](Cc1ccc(O)cc1)C(=O)N1CCC[C@H]1C(=O)N[C@H](C(=O)N[C@@H](CCC)C(=O)N[C@@H](CCCCN)C(N)=O)C1CCCCC1)C(C)(C)C) [R3072]", "f"),
    ("Ac-CAERFCD[Tle]YWEYP[dPhg][Nva]-NH2 (linker 1-6 via mXylyl″) [R3149]", "f"),
    ("Ac-CVERFCDVYWEYP-NH2 (linker 1-6 via mXylyl″) [R3140]", "f"),
    ("Ac-CVERFCA[Tle]Y[Trp(7-aza)]EYP[dPhg][Nva]-NH2 (linker 1-6 via mXylyl″) [R3158]", "t"),
]

Each recorded value in this set is attributed to patent US11535650.
